- measured.target: T1, human myostatin (mature, recombinant; R&D Systems) (human, UniProt O14793 267-375)
- T1 sequence: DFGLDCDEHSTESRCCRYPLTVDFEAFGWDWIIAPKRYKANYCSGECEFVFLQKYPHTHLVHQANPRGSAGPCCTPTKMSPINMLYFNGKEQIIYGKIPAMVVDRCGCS
- run.description: cell-based or functional assay

binder: ATI-1340 [N-ethylmaleimide] (designed binder, N-ethylmaleimide on the Cys of the EGSGC tail, cysteine mutant of 2987_H07) MGVSDVPRDLEVVAATPTSLLISWTLPHAGRAHYYRITYGETGGNSPVQEFTVPGRGVTATISGLKPGVDYTITVYAVTVTTTKVIHYKPISINYRTEGSGCHHHHHH
ARE-luciferase IC50, nM: 0.05
//
binder: 3116_A06 (designed binder, also called WT parent) MGVSDVPRDLEVVAATPTSLLISWSLPHQGKANYYRITYGETGGNSPVQEFTVPGRGVTATISGLKPGVDYTITVYAVTVTDTGYLKYKPISINYRTEIDKPSQHHHHHH
ARE-luciferase IC50, nM: 0.14
//
binder: 2525_D05 (designed binder) MGVSDVPRDLEVVAATPTSLLISWSLPYAGHLNYYRITYGETGGNSPVQEFTVPGRGVTATISGLKPGVDYTITVYAVTLTKSQLIHYMPISINYRTEIDKPSQHHHHHH
ARE-luciferase IC50, nM: 0.11
//
binder: 3146_A08 (designed binder) MGVSDVPRDLEVVAATPTSLLISWSLPNPGNAHYYRITYGETGGNSPVQEFTVPGRGVTATISGLKPGVDYTITVYAVTVTDTGFITYKPISINYRTEIDKPSQHHHHHH
ARE-luciferase IC50, nM: 0.7
